- Test system: CCRF-CEM
- TEST_METHOD_NOTES: NCI tumour cell line growth inhibition, 48 h
Active and inactive are the calls of the source. No stated cut-off is given here; in the data, active = GI50 up to about 1.1 µM and inactive = higher.
Outcome (select one): T for active, F for inactive

Incoming: # outcome recorded in this test, key = Cc1cc(C(C)C)cc(=O)c(O)c1
Outgoing: F

Incoming: # outcome recorded in this test, key = Cc1cc(C)nc(SCCc2cccc[n+]2C)n1
Outgoing: F

Incoming: # outcome recorded in this test, key = Cn1c2ccccc2c2c(-c3ccccc3)cc3c(c21)C(=O)C=CC3=O
Outgoing: T

Incoming: # outcome recorded in this test, key = N#C/C(C(=O)Nc1ccccc1)=C(/N)N1CCCCC1
Outgoing: F

Incoming: # outcome recorded in this test, key = ClCCN(CCCl)c1ccc(/C=N/Nc2ccnc3ccccc23)cc1
Outgoing: F

Incoming: # outcome recorded in this test, key = Nc1nc2cc(CNc3ccc(C(=O)O)cc3)ccc2nc1-c1ccccc1
Outgoing: F

Incoming: # outcome recorded in this test, key = O=C(CN1CCOCC1)c1ccc2[nH]c(=O)oc2c1
Outgoing: F

Incoming: # outcome recorded in this test, key = C1CCCN(NC2=NCCO2)CC1
Outgoing: F

Incoming: # outcome recorded in this test, key = COc1ccc2[nH]c(C(=O)N3CC(CCl)c4ccc(N)cc43)cc2c1 (stereo not given)
Outgoing: T

Incoming: # outcome recorded in this test, key = CC(C)c1ccccc1NC(=O)C(=O)Cc1nc2ccccc2s1
Outgoing: F

Incoming: # outcome recorded in this test, key = CC1(C)OCC2OC3([C@H](O)CCO)OC(C)(C)OC3C2O1 (stereo not given in full)
Outgoing: F

Incoming: # outcome recorded in this test, key = O=C(NO)C(=O)Nc1cc(Cl)ccc1Cl
Outgoing: F

Incoming: # outcome recorded in this test, key = CC(O)CNC1=CC(=O)C(=O)c2ccccc21 (stereo not given)
Outgoing: F

Incoming: # outcome recorded in this test, key = O=C(CCc1ccc(O)c(O)c1)NCCc1ccccc1
Outgoing: F

Incoming: # outcome recorded in this test, key = Cc1cccc2c1Sc1ccccc1C2NC(=O)CCN(C)C (stereo not given)
Outgoing: F

Incoming: # outcome recorded in this test, key = Cn1cco/c1=N/c1ccc(Cl)c(Cl)c1
Outgoing: F

Incoming: # outcome recorded in this test, key = CNC(=O)OCc1c2ccncc2c(C)c2c1[nH]c1ccccc12
Outgoing: T

Incoming: # outcome recorded in this test, key = O=C(CC(c1ccccc1)C(C(=O)c1ccncc1)C(CC(=O)c1ccncc1)c1ccccc1)c1ccncc1 (stereo not given)
Outgoing: F

###

- Test system: U-251
- TEST_METHOD_NOTES: NCI tumour cell line growth inhibition, 48 h
Active and inactive are the calls of the source. No stated cut-off is given here; in the data, active = GI50 up to about 1.1 µM and inactive = higher.
Outcome (select one): active, inactive

COMPOUND	CAT
Nc1nc2cc(CNc3ccc(C(=O)O)cc3)ccc2nc1-c1ccccc1	inactive
C#CCN(CC#C)C(=O)C(=O)c1c[nH]c2ccc(OC)cc12	inactive
Oc1ccc2ccccc2c1/C=N/Cc1c(O)ccc2ccccc12	inactive
CC1CC/C(=C\c2ccc(F)cc2)C2=C1C(c1ccc(F)cc1)N1C(=O)CSC1=N2 (stereo not given)	inactive
CC(C)NC(=O)OCc1c(COC(=O)NC(C)C)c(-c2cc[n+](COC(=O)Cc3ccccc3)cc2)n2c1CCC2	inactive

Incoming: # outcome recorded in this test, key = CCOC(=O)c1c(C)noc1/N=N/N(CCO)CCO
Outgoing: inactive

Incoming: # outcome recorded in this test, key = COc1ccc2c(c1)/C(=C/CCN(C)C)c1ccccc1S2
Outgoing: inactive

Incoming: # outcome recorded in this test, key = COc1ccc(COC2CC(OC)OC(C)C2OC(=O)c2ccccc2)cc1 (stereo not given)
Outgoing: inactive

Incoming: # outcome recorded in this test, key = Cc1cc(Cl)ccc1NC(=O)C(=O)C(C(=O)c1ccccc1)C1OC(=O)c2ccccc21 (stereo not given)
Outgoing: inactive

Incoming: # outcome recorded in this test, key = CC1C[C@]2(C[C@@H](C)C(=O)O2)O[C@@H]2CC3(C)[C@@H]4CCC5C(C)(C)OC(=O)C[C@H]6OO[C@]4(CC[C@]3(C)C12)CC56O (stereo not given in full)
Outgoing: inactive

Incoming: # outcome recorded in this test, key = Cn1cco/c1=N/c1ccc(Cl)c(Cl)c1
Outgoing: inactive

Incoming: # outcome recorded in this test, key = O=C1CCCCCCCCCCC1CN1CCCC1 (stereo not given)
Outgoing: inactive

###

- System: OVCAR-8
- TEST_METHOD_NOTES: NCI tumour cell line growth inhibition, 48 h
The source made the active and inactive calls. No stated cut-off is given here; in the data, active = GI50 up to about 1.1 µM and inactive = higher.
READOUT: GI50

Record excerpt, results attached:
COMPOUND	TESTED_ON	RESULT
O=c1[nH]c2c3ccccc3ccc2c2cc3c(cc12)OCO3	OVCAR-8	> 100 µM (inactive)
Cc1cccc2c(N)c3cccc(C(=O)NCC[N+](C)(C)Cc4sccc4[N+](=O)[O-])c3nc12	OVCAR-8	9.84 µM (inactive)
CNC1C(O)C(OC2C(N)CC(N)C(OC3OC(CN)=CCC3N)C2O)OCC1(C)O (stereo not given)	OVCAR-8	> 100 µM (inactive)
O=C(c1nc2ccccc2nc1O)C(O)c1ccco1 (stereo not given)	OVCAR-8	> 100 µM (inactive)

Incoming: What value of GI50 has been recorded for this entry: Cc1nn(-c2ccccc2)c(C)c1/C=N/N=C1\SCC(=O)N1c1ccccc1
Outgoing: 21.7 µM (inactive)

###

- Test system: T47D
- TEST_METHOD_NOTES: NCI tumour cell line growth inhibition, 48 h
Calls of active or inactive are those of the source. Cut-off read from the data, not from the text of the source: active = GI50 up to about 1.1 µM and inactive = higher.
READOUT: GI50

Record excerpt, results attached:
MOLECULE	GI50
Cc1ccc2c3c4c(ccc13)C(C)(C)OC4=C(C(C)C)C2=O	53.5 µM (inactive)
O=C1/C(=C/c2ccccc2O)N=C(c2ccccc2)N1c1nc2ccccc2s1	21.1 µM (inactive)
C=C1C(=O)C23CC1C[C@H](OC(C)=O)[C@H]2C1(C)C(OC(C)=O)C[C@H](O)C(C)(C)[C@H]1C(=O)[C@@H]3OC(C)=O (some centres not stated)	2.72 µM (inactive)
Cc1ccc(-c2n[nH]c(CC#N)n2)cc1	> 100 µM (inactive)
COc1ccc(/C(Cl)=C(\CNc2ccccn2)c2ccccc2)cc1OC	> 100 µM (inactive)

Incoming: What value of GI50 has been recorded for this entry: CCCCCCCCCCC(C(=O)O)C1(C(=O)O)CCC(=O)O1 (configuration not stated)
Outgoing: > 100 µM (inactive)

Incoming: What value of GI50 has been recorded for this entry: Cc1cc(C)nc(SCCc2cccc[n+]2C)n1
Outgoing: > 100 µM (inactive)

Incoming: What value of GI50 has been recorded for this entry: O=[N+]([O-])c1ccc(N/N=C2\C=CCCC2)c([N+](=O)[O-])c1
Outgoing: > 100 µM (inactive)

Incoming: What value of GI50 has been recorded for this entry: CSC(SC)(C(=O)O)c1cc(-c2c(Cl)cccc2Cl)no1
Outgoing: 28.4 µM (inactive)

Incoming: What value of GI50 has been recorded for this entry: CN(C)S(=O)(=O)c1ccc2c(c1)/C(=C1/Nc3ccccc3C1=O)C(=O)N2
Outgoing: 24.8 µM (inactive)

Incoming: What value of GI50 has been recorded for this entry: N#CC(NCc1cccc(CNC(C#N)c2ccccc2)c1)c1ccccc1 (configuration not stated)
Outgoing: 48.6 µM (inactive)

Incoming: What value of GI50 has been recorded for this entry: Cc1ccc(-c2cc(-c3ccc(Cl)cc3)nc(/N=C3\C(=O)N(CN4CCCCC4)c4ccc(Cl)cc43)n2)cc1
Outgoing: 29.9 µM (inactive)

Incoming: What value of GI50 has been recorded for this entry: ClCCN(CCCl)c1ccc(/C=N/Nc2ccnc3ccccc23)cc1
Outgoing: 1.76 µM (inactive)

Incoming: What value of GI50 has been recorded for this entry: CC1=CCC[C@@H]2[C@@](C)(Cc3cc(O)ccc3O)[C@H](C)CC[C@@]12C
Outgoing: 5.38 µM (inactive)

Incoming: What value of GI50 has been recorded for this entry: N=c1c2sc3nc4ccccc4n3c2ncn1Cc1ccccc1
Outgoing: > 100 µM (inactive)

Incoming: What value of GI50 has been recorded for this entry: O=[PH]1c2ccccc2Nc2ccccc21
Outgoing: > 100 µM (inactive)

Incoming: What value of GI50 has been recorded for this entry: CCOC(=O)C(Cc1cc(OC)c(CC(C(=O)OCC)C(=O)OCC)cc1OC)C(=O)OCC
Outgoing: > 100 µM (inactive)

Incoming: What value of GI50 has been recorded for this entry: COc1ccc2c(c1)CCc1cc(OC)ccc1/[N+]([O-])=[N+]\2[O-]
Outgoing: 17 µM (inactive)

Incoming: What value of GI50 has been recorded for this entry: CCCCn1c(N)c(-c2nc3ccccc3o2)sc1=S
Outgoing: 19.3 µM (inactive)

###

- System: HT-29
- TEST_METHOD_NOTES: NCI tumour cell line growth inhibition, 48 h
Calls of active or inactive are those of the source. No stated cut-off is given here; in the data, active = GI50 up to about 1.1 µM and inactive = higher.
READOUT: GI50

Record excerpt, results attached:
MOLECULE	GI50
COC(=O)[C@H]1CO[C@H]2C/C(C)=C/CC/C(C)=C/CC[C@@]3(C)O[C@@H]3C[C@H]21	17.9 µM (inactive)
COc1ccc2nc(NC(=O)C(=O)C(C#N)c3ccc(Cl)c(Cl)c3)sc2c1 (stereo not given)	> 100 µM (inactive)
CCOC(=O)/C(=C/c1ccc(C#N)cc1)N(CC)CC	> 100 µM (inactive)
COC(=O)C1CCC(=S)N1C(=O)c1ccccc1 (stereo not given)	> 100 µM (inactive)

Switching to the query record.
Incoming: What value of GI50 has been recorded for this entry: CC1C[C@]2(C[C@@H](C)C(=O)O2)O[C@@H]2CC3(C)[C@@H]4CCC5C(C)(C)OC(=O)C[C@H]6OO[C@]4(CC[C@]3(C)C12)CC56O (stereo not given in full)
Outgoing: > 100 µM (inactive)
